Molecular target: F protein of wild type RSV A/Long (respiratory syncytial virus strain …, UniProt P12568 26-574)
Sequence (P12568 26-574): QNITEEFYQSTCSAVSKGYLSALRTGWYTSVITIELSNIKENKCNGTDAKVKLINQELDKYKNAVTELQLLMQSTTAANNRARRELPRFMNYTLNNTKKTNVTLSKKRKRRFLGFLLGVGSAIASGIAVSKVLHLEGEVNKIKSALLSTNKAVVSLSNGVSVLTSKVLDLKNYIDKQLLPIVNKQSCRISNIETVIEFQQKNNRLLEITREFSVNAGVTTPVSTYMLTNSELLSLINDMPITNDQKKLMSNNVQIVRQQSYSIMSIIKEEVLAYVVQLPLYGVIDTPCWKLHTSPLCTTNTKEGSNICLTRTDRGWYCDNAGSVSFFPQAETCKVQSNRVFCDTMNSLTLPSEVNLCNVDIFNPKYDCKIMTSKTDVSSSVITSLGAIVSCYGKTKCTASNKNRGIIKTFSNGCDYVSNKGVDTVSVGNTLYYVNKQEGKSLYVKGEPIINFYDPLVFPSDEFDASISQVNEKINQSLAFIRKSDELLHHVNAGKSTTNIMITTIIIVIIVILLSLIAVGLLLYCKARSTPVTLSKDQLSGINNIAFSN
Assay: cell-based or functional assay
Can you tell me Fold Difference (Curve IC50) for the items I'm about to list?
Answers are plain numbers, in fold.

// worked examples, Fold Difference (Curve IC50) included
>  <BINDER>
A17d4 (Fab fragment) (Fab, V domains shown) VH: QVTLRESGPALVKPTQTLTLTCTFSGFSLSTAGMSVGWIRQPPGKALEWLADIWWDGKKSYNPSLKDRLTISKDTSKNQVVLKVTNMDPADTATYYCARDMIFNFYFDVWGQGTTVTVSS VL: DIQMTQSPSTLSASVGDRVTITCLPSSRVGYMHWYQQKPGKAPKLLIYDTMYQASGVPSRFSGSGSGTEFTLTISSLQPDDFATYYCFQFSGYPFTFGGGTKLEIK

>  <MEASUREMENT TYPE>
Fold Difference (Curve IC50)

>  <MEASURED RESULT>
25

$$$$
>  <BINDER>
A12a6 (monoclonal antibody) (antibody, V domains shown, mAb with framework and constant regions of SYNAGIS) VH: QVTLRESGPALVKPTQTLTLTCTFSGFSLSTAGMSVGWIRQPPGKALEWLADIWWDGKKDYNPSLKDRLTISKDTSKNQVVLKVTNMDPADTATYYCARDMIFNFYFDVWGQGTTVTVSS VL: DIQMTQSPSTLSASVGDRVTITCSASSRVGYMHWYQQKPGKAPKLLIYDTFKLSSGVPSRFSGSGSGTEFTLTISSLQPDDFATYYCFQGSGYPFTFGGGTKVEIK

>  <MEASUREMENT TYPE>
Fold Difference (Curve IC50)

>  <MEASURED RESULT>
13

$$$$
>  <BINDER>
A8c7 (Fab fragment) (Fab, V domains shown) VH: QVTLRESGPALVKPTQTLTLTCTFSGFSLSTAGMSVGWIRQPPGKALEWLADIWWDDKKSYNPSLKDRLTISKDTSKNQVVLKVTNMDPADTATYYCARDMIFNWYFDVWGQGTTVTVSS VL: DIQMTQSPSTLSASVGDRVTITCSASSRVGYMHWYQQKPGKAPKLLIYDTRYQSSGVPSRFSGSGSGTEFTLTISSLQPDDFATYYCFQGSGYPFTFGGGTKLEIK

>  <MEASUREMENT TYPE>
Fold Difference (Curve IC50)

>  <MEASURED RESULT>
3

$$$$
>  <BINDER>
A1h5 (Fab fragment) (Fab, V domains shown) VH: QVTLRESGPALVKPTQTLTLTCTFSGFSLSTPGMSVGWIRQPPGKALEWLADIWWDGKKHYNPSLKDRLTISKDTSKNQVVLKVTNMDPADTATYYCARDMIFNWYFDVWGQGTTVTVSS VL: DIQMTQSPSTLSASVGDRVTITCSLSSSVGYMHWYQQKPGKAPKLLIYDTFFHRSGVPSRFSGSGSGTEFTLTISSLQPDDFATYYCFQGSGYPFTFGGGTKLEIK

>  <MEASUREMENT TYPE>
Fold Difference (Curve IC50)

>  <MEASURED RESULT>
2

$$$$

Attention now turns to another entry.
Query string: Entry A13a11 (Fab fragment) (Fab, V domains shown, Fab) VH: QVTLRESGPALVKPTQTLTLTCTFSGFSLSTAGMSVGWIRQPPGKALEWLADIWWDDKKHYNPSLKDRLTISKDTSKNQVVLKVTNMDPADTATYYCARDMIFNWYFDVWGAGTTVTVSS VL: DIQMTQSPSTLSASVGDRVTITCSASSSVGYMHWYQQKPGKAPKLLIYDTYRHASGVPSRFSGSGSGTEFTLTISSLQPDDFATYYCFQGSGYPFTFGGGTKLEIK : reported Fold Difference (Curve IC50) = ?
Result string: 4
